Molecular target: T1, SARS-CoV2 spike RBD variant (SRD-C52H2, Acro Biosystems, N440K) (SARS-CoV-2, UniProt P0DTC2 319-537)
T1 construct: domain: RBD
Test: BLI (Octet), biotinylated RBD on SA sensor, VHH as analyte, 1:1 fit
Assign koff to each entry below.
One number for each entry, in s⁻¹.

A selection of reference data follows.
Bacillus subtilis-derived VHH-COVE5 (VHH) VHH: EVQLVESGGGLVQAGGSLRLSCTASDQIFDNYNMAWFRQSPGKEREFVAALSWGDSNTGYADSVKGRFTISRDNAKNTVYLQMNSLKPEDTAVYYCYAVTWLRGDYWGQGTQVTVSS    0.00178
Bacillus subtilis-derived VHH-COVE2 (VHH) VHH: AEVQLVESGGGLVQAGDSLRLSCAATRRTSSTYAMGWFRQAPGKGLEWVAAISWDGGRTYYAESVKGRFTISRDNAKNTVYLQMNSLKPEDTAVYYCYSFGGSDFLMDYWGQGTQVTVSSGGGSHHHHHH    0.000491
Bacillus subtilis-derived VHH-COVE9 (VHH) VHH: EVQLVESGGGLVQPGGSLRLSCAASGTIFSTNAMSWYRQAPGKQRELVAAITSGGNTNYADSVKGRFTISRDNAKNTVYLQMNSLKPEDTAVYYCNAPGVVTGSYDVRNYWGQGTQVTVSS    0.00258

Please give koff, item by item, for the list that follows.
1. Bacillus subtilis-derived VHH-COVE7 (VHH) VHH: EVQLVESGGGLVQAGDSLRLSCTASGRTFSSCAMGWFRQAPGKEREFVAAISRGGGSTSYADSVKGRFTISKDRARNTAYLEMNSLKPEDTAIYYCYAVFPSGGDYWGQGTQVTVSS
2. Bacillus subtilis-derived VHH-COVE3 (VHH) VHH: AEVQLVESGGGFVQAGGSLRLSCRVSAPTFMTYTMAWFRQAPGNEREFVAALSKNFVTTSYADSVKGRFTISRDNAKNTVYLQMNSLKPEDTAVYYCNVAWSDYEYLEVWGQGTLVTVSSGGGSHHHHHH

### Response
0.00113
0.000448
